Please provide measured IC50 for the entries that follow.
assay-system: GPR17 (Homo sapiens, UniProt Q13304)
Sequence (Q13304 29-367 limits assumed): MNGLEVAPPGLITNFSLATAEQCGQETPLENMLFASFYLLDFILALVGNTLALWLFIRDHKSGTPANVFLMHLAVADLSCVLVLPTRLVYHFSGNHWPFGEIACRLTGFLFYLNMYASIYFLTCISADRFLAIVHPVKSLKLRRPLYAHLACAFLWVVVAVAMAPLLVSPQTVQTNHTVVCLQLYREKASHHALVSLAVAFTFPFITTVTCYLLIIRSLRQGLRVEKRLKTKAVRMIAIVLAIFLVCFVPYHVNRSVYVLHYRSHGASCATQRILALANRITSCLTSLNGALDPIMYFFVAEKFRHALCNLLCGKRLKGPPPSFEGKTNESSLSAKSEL
assay-overview: Calcium mobilization functional assay (Ca2+ assay) in CHO hGPR17 cells
Format: cell-based
Set-up: host or cells: Flp-In T-REx CHO cells, expression induced with doxycycline
test-settings: inhibition of 50 nM MDL29,951 (GPR17 agonist), activity range, read-out: Ca^2+ assay pIC50 (converted)

input: # lookup: IC50 of COc1nc(Cl)c(F)cc1NS(=O)(=O)c1c[nH]c2cc(Cl)ccc12
output: 0.00316 to 0.0316 µM

input: Please do the same for O=S(=O)(Nc1cnc(Br)cn1)c1c[nH]c2cc(Cl)ccc12 as well.
output: 0.0316 to 0.316 µM

input: Please do the same for COc1cc(NS(=O)(=O)c2c[nH]c3cc(Cl)ccc23)c(F)nc1Cl as well.
output: 0.0316 to 0.316 µM

input: Please do the same for Cc1nc(F)c(NS(=O)(=O)c2c[nH]c3cc(Cl)ccc23)cc1F as well.
output: 0.00316 to 0.0316 µM

input: Please do the same for COc1ncc(Cl)cc1NS(=O)(=O)c1c[nH]c2cc(Cl)ccc12 as well.
output: 0.0316 to 0.316 µM

input: Please do the same for O=S(=O)(Nc1cnc(Cl)cc1F)c1c[nH]c2cc(Cl)ccc12 as well.
output: 0.00316 to 0.0316 µM

input: Please do the same for COc1ccc(NS(=O)(=O)c2c[nH]c3cc(Cl)ccc23)c(Cl)n1 as well.
output: 0.0316 to 0.316 µM

input: Please do the same for COc1nc(F)c(NS(=O)(=O)c2c[nH]c3nc(Cl)ccc23)cc1F as well.
output: 0.0316 to 0.316 µM

input: Please do the same for O=S(=O)(Nc1cc(F)cnc1F)c1c[nH]c2cc(Cl)ccc12 as well.
output: 0.0316 to 0.316 µM

====

assay-system: GPR17 (Homo sapiens)
assay-overview: cAMP accumulation functional assay (HTRF) in CHO hGPR17 cells
Type: cell-based
Parameters: host or cells: Flp-In T-REx CHO cells, expression induced with doxycycline
test-settings: Schild analysis against MDL29,951, 5 μM forskolin, activity range, read-out: cAMP assay pA2 (converted)
quantity-kind: Kb

input: # lookup: Kb of COc1nc(OCCF)ccc1NS(=O)(=O)c1c[nH]c2cc(Cl)ccc12 [Example I-13]
output: 3.16 to 31.6 nM

input: Please do the same for COc1ccc2c(S(=O)(=O)Nc3cc(F)c(OC(F)F)nc3OC)c[nH]c2c1 [Example I-63] as well.
output: ≤ 3.16 nM

input: Please do the same for COc1nc(OCC(F)F)c(F)cc1NS(=O)(=O)c1c[nH]c2cc(OC(F)F)ccc12 [Example I-51] as well.
output: ≤ 3.16 nM

input: Please do the same for COc1nc(OCC(F)F)c(F)cc1NS(=O)(=O)c1c[nH]c2cc(Cl)ccc12 [Example I-42] as well.
output: ≤ 3.16 nM

input: Please do the same for COc1nc(OC)c(NS(=O)(=O)c2c[nH]c3nc(C(F)F)ccc23)cc1F [Example I-56] as well.
output: 3.16 to 31.6 nM

input: Please do the same for O=S(=O)(Nc1ccc(I)nc1)c1c[nH]c2cc(Cl)ccc12 [Example I-21] as well.
output: 3.16 to 31.6 nM

input: Please do the same for COc1nc(OCCOC(F)F)c(F)cc1NS(=O)(=O)c1c[nH]c2cc(Cl)ccc12 [Example I-43] as well.
output: ≤ 3.16 nM

input: Please do the same for COc1ccc2c(S(=O)(=O)Nc3cc(F)c(OCC(F)F)nc3OC)c[nH]c2c1 [Example I-64] as well.
output: ≤ 3.16 nM

input: Please do the same for O=S(=O)(Nc1cc(F)c(OCC(F)F)nc1F)c1c[nH]c2nc(C(F)F)ccc12 [Example I-30] as well.
output: 31.6 to 316 nM

input: Please do the same for COc1nc(OCC(F)F)ccc1NS(=O)(=O)c1c[nH]c2nc(C(F)F)ccc12 [Example I-53] as well.
output: 3.16 to 31.6 nM

input: Please do the same for COc1ncc(F)cc1NS(=O)(=O)c1c[nH]c2nc(Cl)ccc12 [Example I-49] as well.
output: 31.6 to 316 nM

input: Please do the same for COc1nc(OC(F)F)c(F)cc1NS(=O)(=O)c1c[nH]c2cc(Cl)ccc12 [Example I-9] as well.
output: ≤ 3.16 nM

input: Please do the same for O=S(=O)(Nc1cnc(Cl)cc1Cl)c1c[nH]c2cc(Cl)ccc12 [Example I-26] as well.
output: 31.6 to 316 nM

input: Please do the same for COc1nc(OCCF)c(F)cc1NS(=O)(=O)c1c[nH]c2cc(Cl)ccc12 [Example I-12] as well.
output: ≤ 3.16 nM

input: Please do the same for COc1nc(OCC(F)F)ccc1NS(=O)(=O)c1c[nH]c2cc(Cl)ccc12 [Example I-38] as well.
output: ≤ 3.16 nM

input: Please do the same for COc1nc(OC(F)F)ccc1NS(=O)(=O)c1c[nH]c2nc(Cl)ccc12 [Example I-37] as well.
output: 3.16 to 31.6 nM

input: Please do the same for COc1cc(OC(F)F)ncc1NS(=O)(=O)c1c[nH]c2cc(Cl)ccc12 [Example I-40] as well.
output: 3.16 to 31.6 nM

input: Please do the same for O=S(=O)(Nc1cc(F)c(OCC(F)F)nc1F)c1c[nH]c2cc(Cl)ccc12 [Example I-67] as well.
output: ≤ 3.16 nM

input: Please do the same for COc1nc(Cl)c(F)cc1NS(=O)(=O)c1c[nH]c2nc(OCc3ccccc3)ccc12 [Example I-72] as well.
output: 31.6 to 316 nM

input: Please do the same for O=S(=O)(Nc1cc(F)c(C2CC2)nc1F)c1c[nH]c2cc(Cl)ccc12 [Example I-41] as well.
output: 3.16 to 31.6 nM

input: Please do the same for COc1nc(OCC(F)F)c(F)cc1NS(=O)(=O)c1c[nH]c2cc(C(F)F)ccc12 [Example I-62] as well.
output: ≤ 3.16 nM

input: Please do the same for COc1nc(Cl)c(F)cc1NS(=O)(=O)c1c[nH]c2cc(Cl)ccc12 [Example I-3] as well.
output: ≤ 3.16 nM

input: Please do the same for COc1nc(OC)c(NS(=O)(=O)c2c[nH]c3nc(Cl)ccc23)cc1F [Example I-34] as well.
output: 3.16 to 31.6 nM

input: Please do the same for Cc1nc(F)c(NS(=O)(=O)c2c[nH]c3cc(Cl)ccc23)cc1F [Example I-7] as well.
output: 3.16 to 31.6 nM

input: Please do the same for COc1nc(F)c(NS(=O)(=O)c2c[nH]c3cc(Cl)ccc23)cc1F [Example I-5] as well.
output: 3.16 to 31.6 nM

input: Please do the same for COc1nc(OC(F)F)c(F)cc1NS(=O)(=O)c1c[nH]c2cc(C#N)ccc12 [Example I-66] as well.
output: ≤ 3.16 nM

input: Please do the same for COc1nc(OCCF)c(F)cc1NS(=O)(=O)c1c[nH]c2nc(Cl)ccc12 [Example I-36] as well.
output: ≤ 3.16 nM

input: Please do the same for COc1nc(OCC(F)F)c(F)cc1NS(=O)(=O)c1c[nH]c2cc(C#N)ccc12 [Example I-65] as well.
output: 3.16 to 31.6 nM

input: Please do the same for COc1nc(OCC(F)F)c(F)cc1NS(=O)(=O)c1c[nH]c2c1ccc1cccnc12 [Example I-69] as well.
output: ≤ 3.16 nM

input: Please do the same for COc1nc(Cl)ccc1NS(=O)(=O)c1c[nH]c2cc(C(F)F)ccc12 [Example I-27] as well.
output: 31.6 to 316 nM

input: Please do the same for COc1nc(OC(F)F)c(F)cc1NS(=O)(=O)c1c[nH]c2cc(C(F)F)ccc12 [Example I-16] as well.
output: ≤ 3.16 nM

input: Please do the same for COc1nc(F)c(NS(=O)(=O)c2c[nH]c3nc(Cl)ccc23)cc1F [Example I-33] as well.
output: 31.6 to 316 nM

input: Please do the same for COc1nc(OCC(F)F)c(F)cc1NS(=O)(=O)c1c[nH]c2nc(Cl)c(Br)cc12 [Example I-71] as well.
output: ≤ 3.16 nM

input: Please do the same for COc1nc(OC(F)F)c(F)cc1NS(=O)(=O)c1c[nH]c2cc(C)ccc12 [Example I-60] as well.
output: ≤ 3.16 nM

input: Please do the same for COc1nc(Cl)ccc1NS(=O)(=O)c1c[nH]c2nc(C(F)F)ccc12 [Example I-28] as well.
output: 31.6 to 316 nM
